# Tested on: MS2 coat protein
# ASSAY NAME: apparent Kd, MS2 coat protein; higher = weaker binding; RNA-MaP array; FMN 200 µM where present
# PARTICULARS: ligand present: flavin mononucleotide; designed as: OFF switch for flavin mononucleotide
Reported apparent Kd values are given for each entry in this list.
Report only the number, with the unit nM understood.

ITEM SEQUENCE	MEASURED TARGET	SCALE UNIT	ENDPOINT VALUE
GGAUAGGACAGAGGAUAUACGUGCUAGAGAUACUAGCAAAACUUCCUCACAUGAGGAUCACCCAUGUAGAAGGCUGUCCUAUCG	MS2 coat protein	nM	564
GAUCUGGCAGGAUAUACAUGAGGAUCACCCAUGUGCGAGCUAGCGAAAGCUAGCUCAGGUAGAAGGGUCAGAUC	MS2 coat protein	nM	15.5
GGUUGACAAAGUCAACCAUAACGAACAUGAGGAUCACCCAUGUAGGAUAUGCUACUCAAAGAGUAGCAGAAGGACAUGUGCCUU	MS2 coat protein	nM	293

Read the next record carefully.
Query :: apparent Kd lookup needed for `AAAAGCAUCCAGUAUCAAAAUACAUGAGGAUCACCCAUGUAGCAGGAUAUCAACGUUCCCGACGGUGAGAAGGGCUAUAUGUUG` , thanks.
Result :: 9.26
